Reference for the values: patent US8846675B2

# Experimental target: IC-GPCR2 (Homo sapiens)
# Construct: expressed in transfected cells
# Sequence (Q8TDV5 whole entry S309L): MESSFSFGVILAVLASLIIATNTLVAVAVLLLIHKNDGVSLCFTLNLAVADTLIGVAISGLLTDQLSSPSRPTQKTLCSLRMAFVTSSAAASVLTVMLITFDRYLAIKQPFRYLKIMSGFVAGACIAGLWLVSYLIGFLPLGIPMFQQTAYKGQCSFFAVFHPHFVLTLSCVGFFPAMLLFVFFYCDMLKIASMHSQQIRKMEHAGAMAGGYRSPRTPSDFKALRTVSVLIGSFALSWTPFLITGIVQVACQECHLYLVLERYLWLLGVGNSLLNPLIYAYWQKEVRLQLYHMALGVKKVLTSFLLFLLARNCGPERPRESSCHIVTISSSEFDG
# Experiment description: Stimulation of cAMP in CHO cell line stably expressing IC-GPCR2 (HTRF cAMP dynamic kit)
# Assay type: cell-based
# Condition context: 3 μM compound; relative to maximal activity of 5-Ethyl-2-{4-[4-(4-tetrazol-1-yl-phenoxymethyl)-thiazol-2-yl]-piperidin-1-yl}-pyrimidine (=100%); IC-GPCR2 stably expressing CHO cells, 30 minutes
Where a name gives a salt, the structure may show the parent alone.
Can you tell me % activity at 3 μM for the items I'm about to list?
Provide the reading as a plain figure in %.

Reported % activity at 3 μM for CCc1cnc(N2CCC(n3ncc(COc4ccc(-n5cncn5)nc4C)n3)CC2)nc1 : what is it?
70.03

Reported % activity at 3 μM for CC(C)(C)OC(=O)N1CCC(n2cnc(COc3ccc(S(C)(=O)=O)cc3F)n2)CC1 : what is it?
64.46

Reported % activity at 3 μM for CC1CC(n2ncc(COc3ccc(-n4cnnn4)cc3F)n2)CCN1c1ncc(C(F)(F)F)cn1 (centres unmarked) : what is it?
66.77

Reported % activity at 3 μM for O=C1CCCN1c1ccc(OCc2cnn(C3CCN(c4ncc(C(F)(F)F)cn4)CC3)n2)cc1 : what is it?
56.81

Reported % activity at 3 μM for Clc1cnc(N2CCC(n3ncc(COc4ccccc4-c4nnco4)n3)CC2)nc1 : what is it?
28.90

Reported % activity at 3 μM for CCOC(=O)c1cnc(N2CCC(n3ncc(COc4ccc(S(C)(=O)=O)cc4F)n3)CC2)nc1 : what is it?
10.65

Reported % activity at 3 μM for N[C@H](CC(=O)N1CCC(n2ncc(COc3ccc(-n4cnnn4)nc3)n2)CC1)Cc1cc(F)c(F)cc1F [Example 57, hydrochloride] : what is it?
27.80

Reported % activity at 3 μM for O=C(c1ncccc1O)N1CCC(n2ncc(COc3ccc(-n4cnnn4)cc3F)n2)CC1 : what is it?
1.30

Reported % activity at 3 μM for CC(C)OC(=O)N1CCC(n2ncc(COc3ccc(-n4cnnn4)nc3)n2)CC1 : what is it?
72.14

Reported % activity at 3 μM for FC(F)(F)c1cnc(N2C3CCC2CC(n2ncc(COc4ccc(-n5cnnn5)nc4)n2)C3)nc1 (centres unmarked) : what is it?
70.78

Reported % activity at 3 μM for O=C(c1cccc(O)n1)N1CCC(n2ncc(COc3ccc(-n4cnnn4)cc3F)n2)CC1 : what is it?
7.45

Reported % activity at 3 μM for CS(=O)(=O)c1ccc(OCc2cnn(C3CCN(c4ncc(F)cn4)CC3)n2)c(F)c1 : what is it?
36.83

Reported % activity at 3 μM for Cc1cnc(N2CCC(n3ncc(COc4ccc(-n5cnnn5)nc4)n3)C(C)C2)nc1 (centres unmarked) : what is it?
71.39

Reported % activity at 3 μM for O=C(OCc1ccccc1)N1CCC(n2ncc(COc3ccc(-n4cnnn4)cc3F)n2)CC1 : what is it?
38.98

Reported % activity at 3 μM for CCc1cnc(N2CCC(n3ncc(COc4ccc(-n5cnnn5)nc4)n3)C(C)C2)nc1 (centres unmarked) : what is it?
76.12

Reported % activity at 3 μM for Fc1cc(-n2cnnn2)ccc1OCc1cnn(C2CCN(c3ncc(Cl)cn3)CC2)n1 : what is it?
70.31

Reported % activity at 3 μM for CCc1cnc(N2CCC(n3ncc(COc4ccc(-n5cnnn5)nc4)n3)CC2)nc1 : what is it?
75.55

Reported % activity at 3 μM for Cc1sc(OCc2cnn(C3CCN(c4ncc(Cl)cn4)CC3)n2)nc1-c1ccncc1 : what is it?
5.82

Reported % activity at 3 μM for CC1CN(c2ncc(Cl)cn2)CCC1n1ncc(COc2ccc(-n3cnnn3)nc2)n1 (centres unmarked) : what is it?
75.63

Reported % activity at 3 μM for CCc1cnc(N2CCC(n3cc(COc4ccc(-n5cnnn5)cc4F)cn3)CC2)nc1 : what is it?
80.10

Reported % activity at 3 μM for CCc1cnc(N2CCC(n3cc(COc4ccc(-n5cnnn5)cc4F)c(C(F)(F)F)n3)CC2)nc1 : what is it?
80.00

Reported % activity at 3 μM for FC(F)(F)c1cnc(N2CCC(n3ncc(COCc4ccccc4)n3)CC2)nc1 : what is it?
10.69

Reported % activity at 3 μM for C=CCOC(=O)N1CCC(n2ncc(COc3ccc(-n4cnnn4)cc3F)n2)CC1 : what is it?
56.39

Reported % activity at 3 μM for O=C(c1cccnc1)N1CCC(n2ncc(COc3ccc(-n4cnnn4)cc3F)n2)CC1 : what is it?
42.30

Reported % activity at 3 μM for COC(=O)Cc1cnc(N2CCC(n3ncc(COc4ccc(-n5cnnn5)nc4)n3)CC2)nc1 : what is it?
52.86

Reported % activity at 3 μM for COC(=O)[C@H]1C[C@H](n2ncc(COc3ccc(-n4cnnn4)nc3)n2)CCN1C(=O)OC(C)(C)C (relative stereo) : what is it?
33.25

Reported % activity at 3 μM for CC(C)S(=O)(=O)N1CCC(n2ncc(COc3ccc(-n4cnnn4)nc3)n2)CC1 : what is it?
67.58

Reported % activity at 3 μM for CS(=O)(=O)c1ccc(OCc2nnn(C3CCN(c4ncc(Cl)cn4)CC3)n2)c(F)c1 : what is it?
68.23

Reported % activity at 3 μM for CCc1cnc(N2CCC(n3ccc(COc4ccc(-n5cnnn5)cc4F)n3)CC2)nc1 : what is it?
57.71

Reported % activity at 3 μM for Cc1cccnc1C(=O)N1CCC(n2ncc(COc3ccc(-n4cnnn4)cc3F)n2)CC1 : what is it?
24.12

Reported % activity at 3 μM for O=S(=O)(C1CC1)N1CCC(n2ncc(COc3ccc(-n4cnnn4)nc3)n2)CC1 : what is it?
42.63

Reported % activity at 3 μM for O=S(=O)(C1CCCCC1)N1CCC(n2ncc(COc3ccc(-n4cnnn4)nc3)n2)CC1 : what is it?
70.92
